# Tested on: RARa:RXR (NR concentration 270 nM, RXRa partner concentration 90 nM)
# procedure_text: PBM binding z-score (relative to random genomic background probes); higher = stronger binding; sequences stand for … in GC…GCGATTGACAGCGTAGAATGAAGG
observed_property: PBM binding z-score

[[record]]
residue_codes = "CCAGCCAGGTGAAAGGTAACTCAGTCTGGTACGC"
observed_property = "PBM binding z-score"
observed = 1.32

[[record]]
residue_codes = "GCTGCTAGGTCAGGTTGATCAGCTAACGGGTACG"
observed_property = "PBM binding z-score"
observed = 0.656

[[record]]
residue_codes = "CCCACTGGGCCAAGGTCATTGATCAGTCAAAGCA"
observed_property = "PBM binding z-score"
observed = 3.45

[[record]]
residue_codes = "CTCGAAAAGTCGTGCTCAGGTGAGTATACCAAAC"
observed_property = "PBM binding z-score"
observed = 0.523

[[record]]
residue_codes = "CCTAGTTGGTCAGGAGGTCACACGCCGGATATGA"
observed_property = "PBM binding z-score"
observed = 4.32

[[record]]
residue_codes = "CCAGACAGGTGAGAAGGTAAGTCAGCCTCGATTA"
observed_property = "PBM binding z-score"
observed = 0.396

[[record]]
residue_codes = "TCTAGTTGGTCACGGAGGTCAGACACGACGGGTA"
observed_property = "PBM binding z-score"
observed = 2.79

[[record]]
residue_codes = "CGAACTAGGTCAGAACAGGACAGAGAAGGATGAT"
observed_property = "PBM binding z-score"
observed = 0.515

[[record]]
residue_codes = "GATACAGGGTCAAAGCCAGAGTACGCGTATTGAT"
observed_property = "PBM binding z-score"
observed = 4.76

[[record]]
residue_codes = "ACTAGCAGGCCAAGTTTGGGTCACTCACACAAAG"
observed_property = "PBM binding z-score"
observed = 1.62

[[record]]
residue_codes = "GCGACTGGGGCAAAGCCGGTTACCATAAGGTTGG"
observed_property = "PBM binding z-score"
observed = -0.45

[[record]]
residue_codes = "CAGACTAGGTCAAGAGGTCAAAGTCCGCTTCCCG"
observed_property = "PBM binding z-score"
observed = 7.55


---

# Test system: RXRa homodimer (NR concentration 180 nM)
# procedure_text: PBM binding z-score (relative to random genomic background probes); higher = stronger binding; sequences stand for … in GC…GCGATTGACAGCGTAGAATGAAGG
Kindly return t if reported PBM binding z-score is no lower than 3; return f if it is lower.

[[record]]
residue_codes = "AGTCAAAGTTCATGACGAGGTAACGTAAAGCACG"
class = "t"

[[record]]
residue_codes = "CGAACTAGGTCGGAACAGGACAGTGAAGGATGAT"
class = "f"

[[record]]
residue_codes = "TTTCGGAGGACACGAAAGGTCAGAGCTCGACATC"
class = "t"

[[record]]
residue_codes = "AGAATGAGGTTATACGTAGATCAGTGAAGAAAGT"
class = "f"

[[record]]
residue_codes = "TTACCAAGGTGAAGGTCGGTGATCCCTCTGTAGA"
class = "f"

[[record]]
residue_codes = "GCTAGTTGGTCAGTAAAAGGTCAGACACCGGTCG"
class = "t"

[[record]]
residue_codes = "CAGCCTAGGTCAGGGCCAGTCTAGGAGGAACGTT"
class = "f"

[[record]]
residue_codes = "CAAAGTAGGTCACAGAGGTCAAAGTCCGTGCGTA"
class = "t"

[[record]]
residue_codes = "CCGAGTAGATTATGGGGCATTCAGGCAACGGTGA"
class = "f"

[[record]]
residue_codes = "ATCTCTAGGTAAAGATAGTTCAGTGAGTGCAAAT"
class = "f"

[[record]]
residue_codes = "CGTCCAAGGTCAAAGGTCAGAGAAGAGATGACGG"
class = "t"

[[record]]
residue_codes = "TCGAGTAGGTTAGGGGCATTCAAAATGGCGTCGA"
class = "f"

[[record]]
residue_codes = "CTCCAAAGGTCGTGCTCAGGTGAGTATACCAAAC"
class = "t"

[[record]]
residue_codes = "AGTCAAAGTTCATCTAGGTAACTTAAGATATGCT"
class = "t"

[[record]]
residue_codes = "TCTAGTTGGTCAAAAGTCACACACTCGAAATGCG"
class = "f"

[[record]]
residue_codes = "TCATATAGCTAAACAGGTGAAAGTCCGTAAGTTA"
class = "f"

[[record]]
residue_codes = "TTACCAAGGCGAGCTGAGGTCGTTGATCCAACTC"
class = "f"

[[record]]
residue_codes = "ATCTCTCGGTAACCAAGTTCAGTGAATGCCGAAC"
class = "f"

[[record]]
residue_codes = "CCTACTGGGCCTCGAAAGGTCATTGATTCAGTGA"
class = "t"

[[record]]
residue_codes = "TCTCGGAGGACACGGAAGGTCAGAGCTCGACATC"
class = "f"

[[record]]
residue_codes = "TCTATTAGTTGATTAGGGCAACTGAAACAGCGGA"
class = "f"

[[record]]
residue_codes = "CAAACTAGGTCACCGGAAGGTCAATGTCCGCATG"
class = "t"

[[record]]
residue_codes = "AGAACGACGGCACGCTGAGTTGATAGCAGAGTAG"
class = "f"

[[record]]
residue_codes = "CCTATTAGTTAACCATAAGGGCAACCGAAGCTCG"
class = "f"

